System: HeLa cells
assay remarks: Cell proliferation assay (XTT), cytostatic activity
Format: cell-based
run conditions: Homo sapiens, 72-h treatment, XTT cell proliferation kit
# label = bin(measured IC50), where bins are lower range: < 40 nM; middle range: ≥ 40 nM and < 200 nM; upper range: ≥ 200 nM

# count of solved cases: 5
compound: CSc1cc(C(=NO)c2ccc3c(c2)c(C#N)cn3C)cc(Cl)n1 (mixture of isomers)
label value: middle range

compound: COc1cc(NS(=O)(=O)c2ccc3c(ccn3C)c2)cc(OC)c1
label value: upper range

compound: CSc1cc(C(=O)c2ccc3c(c2)c(C=O)cn3C)cc(Cl)n1
label value: upper range

compound: C=C(c1cc(OC)c(OC)c(OC)c1)c1ccc2c(c1)c(C(N)=O)cn2C
label value: lower range

compound: CSc1cc(C(=O)c2ccc3c(c2)c(C=O)cn3C)cc(N(C)C)n1
label value: upper range

Given COc1ccc(/C(=N\O)c2ccc3c(ccn3C)c2)c(OC)c1OC , name the class its IC50 places it in.
middle range

Cool, now COc1cc(OC)cc(N(C)S(=O)(=O)c2ccc3c(c2)c(C=O)cn3C)c1
upper range

----------
For each of the compounds below, state its IC50.
Tested on: HeLa cells
assay remarks: Cell proliferation assay (XTT), cytostatic activity
Format: cell-based
run conditions: Homo sapiens, 72-h treatment, XTT cell proliferation kit
Give bare numbers, in nM.

Worked examples, 2 compounds total:
structure string: C=C(c1cc(Cl)nc(SC)c1)c1ccc2c(c1)c(C=O)cn2C
IC50 (nM): 70
--
structure string: CSc1cc(C(=O)c2ccc3c(ccn3C)c2)cc(Cl)n1
IC50 (nM): 300

Attention now shifts to the item below.
Look up IC50: C=C(c1cc(OC)c(OC)c(OC)c1)c1ccc2c(c1)c(C#N)cn2C
2.9

----------
Tested on: HeLa cells
assay remarks: Cell proliferation assay (XTT), cytostatic activity
Format: cell-based
run conditions: Homo sapiens, 72-h treatment, XTT cell proliferation kit
Description: […] cells were seeded in 96-well plates and incubated in the presence or the absence of the indicated compounds at concentrations ranging from 10^-5 to 10^-12 M. The cytostatic activity was measured after 72-h treatments using the XTT (sodium 3'-[1-(phenylaminocarbonyl)-3,4-tetrazolium]-bis(4- methoxy-6-nitro)-benzenesulfonic acid hydrate) cell proliferation kit (Roche Molecular Biochemicals; Mannheim, Germany) following the manufacturer's specifications. […]
measured attribute: IC50 (nM)
One number for each entry, in nM.

Worked examples, 5 compounds total:
compound: CSc1cc(C(=NO)c2ccc3c(ccn3C)c2)cc(SC)n1 (mixture of isomers)
IC50 / nM: 500
//
compound: COc1cc(N(C)S(=O)(=O)c2ccc3c(c2)c(C=O)cn3C)cc(OC)c1OC
IC50 / nM: 41
//
compound: COc1cc(N(C)S(=O)(=O)c2ccc3c(c2)c(C#N)cn3C)cc(OC)c1OC
IC50 / nM: 12.3
//
compound: C=C(c1cc(OC)c(OC)c(OC)c1)c1ccc2c(c1)c(CO)cn2C
IC50 / nM: 310
//
compound: COc1cc(C(=O)c2ccc3c(c2)c(C=O)cn3C)cc(OC)c1OC
IC50 / nM: 320

Go through the list and state IC50 for each entry.
1. CSc1cc(C(=O)c2ccc3c(ccn3C)c2)cc(SC)n1
2. C=C(c1ccc2c(c1)c(C=O)cn2C)c1ccc(OC)c(OC)c1OC
3. COc1cc(C(=O)c2ccc3c(ccn3C)c2)cc(SC)n1

1. 200
2. 32
3. 200

Look up IC50: C=C(c1cc(SC)nc(N(C)C)c1)c1ccc2c(ccn2C)c1
200

These entries and their values trace back to patent EP4620466A1.
